Target: T1, human EpCAM (epithelial cell adhesion/activating molecule) (human, UniProt P16422 24-314)
T1 sequence: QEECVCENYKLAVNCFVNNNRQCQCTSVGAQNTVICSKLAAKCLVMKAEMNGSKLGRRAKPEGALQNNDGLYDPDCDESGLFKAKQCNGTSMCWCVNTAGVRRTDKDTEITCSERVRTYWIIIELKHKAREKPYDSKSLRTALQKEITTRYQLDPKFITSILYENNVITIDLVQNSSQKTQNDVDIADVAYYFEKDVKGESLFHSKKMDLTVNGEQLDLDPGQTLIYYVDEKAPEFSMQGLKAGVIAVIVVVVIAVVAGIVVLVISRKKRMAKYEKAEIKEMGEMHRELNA
Test: cell-based or functional assay
quantity.kind: % Annexin V/PI-positive cells, FaDu, 10 µg/ml mAb (%)
Numeric only. Scale: %

binder: murine monoclonal antibody 12H8 (antibody, mouse IgG2a, V domains shown, Mouse IgG2a, kappa, from hybridoma; also called m342-12H8.3; m12H8) VH: QIQLVQSGPELKKPGETVKISCKTSGYTFTDYSMHWVNQAPGKGLKWMGWINTETGEPTYTDDFKGRFAFSLETSASTAYLQINNLKNEDTATYFCARTAVYWGQGTTLTVSS VL: DIQMTQSPSSLSASLGERVSLTCRASQEISGSLSWLQQKPDGTIKRLIYAASTLNSGVPKRFSGRRSGSDYSLTISSLESEDFVDYYCLQYSSYPWSFGGGTKLEIKR
value: 44
--
binder: murine monoclonal antibody 6D11 (antibody, mouse IgG1, V domains shown, Mouse IgG1, kappa, from hybridoma; also called m338-6D11.8) VH: EVQLVESGGDLVKPGGSLKLSCAASGFAFDSYGMSWIRQTPGTRLEWVATISSGGYYTYYEDNVKGRFIISRDNAKNTLDLQMSGLKSEDAATYYCARRGNYDVDYYAMDYWGQGTSVIVSS VL: DVVLTQIPLSLPVSLGDQASISCRSSQSLEHSNGNTYLHWYLQKPGQSPKLLIYKVSNRFSGVPDRFSGSGSGTDFTLKISRVEAEDLGVYFCSQSTHVPPWTFGGGTKLEFKR
value: 37
--
binder: murine monoclonal antibody 2D11 (antibody, mouse IgG1, V domains shown, Mouse IgG1, kappa, from hybridoma; also called m322-2D11.19) VH: QIQLVQSGPELKKPGETVKISCKASGYTFTNYGMNWVKQAPGKGLKWMGWINTNTGEATYVEEFKGRVVFSLETSASTAYLQINNLKNEDTATYFCARIGYVWYFDVWGAGTTVTVSS VL: DIVMSQSPSSLAVSAGEKVTMSCKSSQSLFSSRTRKNYLAWYQQKPGQSPKLLIYWASTRESGVPDRFTGSGSGTDFTLTINSVQAEDLAVYYCKHSNNLFTFGSGTKLEIKR
value: 46

Q. What value of % Annexin V/PI-positive cells, FaDu, 10 µg/ml mAb has been recorded for this entry: murine monoclonal antibody 4D2 (antibody, mouse IgG1, V domains shown, Mouse IgG1, kappa, from hybridoma; also called m338-4D2.20) VH: EVQLVESGGDLVKPGGSLKLSCAASGFAFDSYGMSWVRQTPGKRLEWVATISSGGYYTYYQDSVKGRFTTSRDNAKNTLDLQMSSLKSEDSAIYYCARRGNYDVDYYAMDYWGQGTSVTVSS VL: DVVMTQTPLSLPVSLGDQASISCRSSQSLVHSNGNTYLHWYLQKPGQSPKLLIYKVSNRFSGVPDRFSGSGSGTDFTLRISRVEAEDLGVYFCSQSTHVPPWTFGGGTKLEIKR
A. 46
